# ASSAY NAME: clinical
# EXPERIMENTAL SETUP: human, in vivo, po, 75 mg
READOUT LABEL: Cmax (ng/mL)
Give bare numbers, in ng/mL.

Quick check: Cmax of Cn1c(=O)n([C@@H]2CCC(=O)NC2=O)c2cccc(C#CCOC3CCN(C[C@H]4CC[C@H](n5cc(NC(=O)c6cnn7ccc(N8C[C@H]9C[C@@H]8CO9)nc67)c(C(F)F)n5)CC4)CC3)c21 [Compound A] ?
9.08

---

# ASSAY NAME: clinical
# EXPERIMENTAL SETUP: human, in vivo, po, 600 mg
READOUT LABEL: half-life (h)
Answers are plain numbers, in h.

Quick check: half-life of "Cn1c(=O)n([C@@H]2CCC(=O)NC2=O)c2cccc(C#CCOC3CCN(C[C@H]4CC[C@H](n5cc(NC(=O)c6cnn7ccc(N8C[C@H]9C[C@@H]8CO9)nc67)c(C(F)F)n5)CC4)CC3)c21" ?
30.1
